Lab note: anything with melting point below 200 °C is marked true (1); values at 200 °C or higher are marked false (0).

Field: example entries. Status: answers known.
Request: Please state whether melting point is below 200 °C for Cc1cc(-c2ccc(C(F)(F)F)cc2)cc(-c2cc(-c3ccc(N)nc3)cs2)n1 [Example 256]
Result: true (1)

Request: Would you mind doing Cc1cc(-c2ccc(C(F)(F)F)cc2)nc(-c2cccc(-c3ccc(S(N)(=O)=O)s3)c2)c1 [Example 273] as well?
Result: false (0)

Request: Repeat with Nc1ccc(-c2cc(-c3nc(-c4ccc(C(F)(F)F)c(OCC(F)(F)F)c4)cc(C(F)(F)F)n3)ccn2)cn1 [Example 135]
Result: false (0)

Request: Check Nc1ccc(-c2cc(-c3nc(-c4ccc(C(F)(F)F)cc4)cc(C(F)(F)F)n3)ccn2)cn1 [Example 31] too.
Result: false (0)

Request: Follow-up entry: CS(=O)(=O)c1cccc(-c2cccc(-c3nc(-c4ccc(C(F)(F)F)cc4)cc(C(F)(F)F)n3)c2)c1 [Example 219]
Result: true (1)

Others:
Request: Dear colleague, could you confirm whether melting point of Cc1cc(-c2ccc(C(F)(F)F)cc2)nc(-c2cccc(-c3cccc(S(=O)(=O)NC(C)(C)C)c3)c2)n1 [Example 165] falls below 200 °C? Thanks.
Result: true (1)

Request: Entry to check: Nc1ccc(-c2cc(-c3nc(-c4ccc(C(F)(F)F)cc4)cc(C(F)F)n3)ccn2)cn1 [Example 88]
Result: false (0)

Request: Continue with NS(=O)(=O)c1cccc(-c2cc(-c3nc(-c4ccc(C(F)(F)F)cc4F)cc(C(F)(F)F)n3)ccn2)c1 [Example 450]
Result: false (0)

Request: # repeat for Cc1cc(-c2cc(C(F)(F)F)nc(-n3cnc(-c4cccc(S(N)(=O)=O)c4)c3)n2)ccc1C(F)(F)F [Example 213]
Result: true (1)

Request: Could you do the same for Cc1cc(-c2ccc(C(F)(F)F)cc2)cc(-c2cccc(-c3cccc(S(=O)(=O)NCc4ccccc4)c3)n2)n1 [Example 431] , please?
Result: true (1)

Request: Cc1nc(-c2cn(-c3cc(-c4ccc(C(F)(F)F)cc4)cc(C(F)(F)F)n3)cn2)sc1S(=O)(=O)NC(C)(C)C [Example 300]
Result: false (0)

Request: # iterate: NS(=O)(=O)c1ccc(-c2cn(-c3nc(-c4ccc(F)cc4)cc(C(F)(F)F)n3)cn2)s1 [Example 386]
Result: false (0)

* * *

Reported Property: melting point (°C)
Respond numerically; units are °C and should not be typed.

Request: Request the reported melting point associated with NS(=O)(=O)c1ccc(-c2cn(-c3nc(-c4ccc(C(F)(F)F)cc4)cc(C(F)(F)F)n3)cn2)cc1
Result: 292

Request: Input NS(=O)(=O)c1ccc(-c2cn(-c3nc(-c4ccc(F)c(F)c4)cc(C(F)(F)F)n3)cn2)s1
Result: 228

Request: // repeat for Cc1cc(-c2ccc(C(F)(F)F)cc2)cc(-c2cccc(-c3cc(S(N)(=O)=O)c(F)cc3F)c2)n1 and report
Result: 227

Request: Same question for Cc1cc(-c2ccc(Cl)cc2)nc(-n2cnc(-c3ccc(S(N)(=O)=O)s3)c2)n1 please.
Result: 281

Request: Note, next up: Cc1cc(-c2ccc(C(F)(F)F)cc2)cc(-c2ccnc(-c3cccc([N+](=O)[O-])c3)c2)n1
Result: 164

Request: Do the same for Nc1ccc(-c2noc(-c3nc(-c4ccc(Cl)c(Cl)c4)cc(C(F)(F)F)n3)n2)cn1 please
Result: 227

Request: Subsequent entry: Nc1ccc(-c2nc(-c3nc(-c4ccc(C(F)(F)F)cc4)cc(C(F)(F)F)n3)no2)cn1
Result: 205

Request: Moving on to the next compound: CC(C)(C)NS(=O)(=O)c1cnc(-c2cn(-c3cc(-c4ccc(C(F)(F)F)cc4)cc(C(F)(F)F)n3)cn2)s1
Result: 252

Request: Next compound: CCOc1cc(-c2cc(C(F)(F)F)nc(-c3cccc(-c4ccc(N)nc4)c3)n2)ccc1C(F)(F)F
Result: 208

Request: Check Nc1ccc(-c2cccc(-c3nc(-c4ccc(C(F)(F)F)cc4)cc(C(F)F)n3)c2)cn1 too.
Result: 191

New cases:
Request: Suppose we examine the compound Cc1nc(-c2ccc(N)nc2)cn1-c1nc(-c2ccc(C(F)(F)F)cc2)cc(C(F)(F)F)n1 ; what melting point value has been reported?
Result: 285

Request: Then Cc1cc(-c2ccc(C(F)(F)F)cc2)cc(-c2ccnc(-c3cccc(N)c3)n2)n1 ?
Result: 167

* * *

Reported Property: melting point (°C)
Quick reminder: number only, in °C, skip the unit.

Request: # melting point lookup, item CC(C)(C)NS(=O)(=O)c1cccc(-c2cccc(-c3nc(-c4ccc(C(F)(F)F)cc4)cc(C(F)(F)F)n3)c2)c1
Result: 200

Request: Cc1cc(-c2ccc(C(F)(F)F)cc2)cc(-c2nc(-c3ccc(N)nc3)no2)n1 ?
Result: 163

Request: Now consider NS(=O)(=O)c1cccc(-c2nc(-c3nc(-c4ccc(C(F)(F)F)cc4)cc(C(F)(F)F)n3)no2)c1 and answer again.
Result: 205

Request: Same thing, different compound: Cc1cc(-c2ccc(Cl)c(Cl)c2)nc(-c2cccc(-c3ccc(N)nc3)c2)n1
Result: 170.5

Request: Also Cc1cc(-c2ccc(C(F)(F)F)cc2)nc(-c2cccc(-c3cnc(N)nc3)c2)n1 , if possible.
Result: 290

Request: Quick one: Cc1cc(-c2ccc(Cl)cc2)nc(-c2cccc(-c3cccc(S(N)(=O)=O)c3)c2)n1
Result: 221

Request: Can you check Cc1cc(-c2ccc(Cl)c(Cl)c2)nc(-c2cccc(-c3cccc(S(N)(=O)=O)c3)c2)n1 next?
Result: 206.5

Request: Also, CCOc1cc(-c2cc(C(F)(F)F)nc(-c3ccnc(-c4ccc(N)nc4)c3)n2)ccc1C(F)(F)F please.
Result: 222

Request: Then this compound: Cc1cc(-c2cc(C(F)(F)F)nc(-c3ccnc(-c4ccc(N)nc4)c3)n2)ccc1C(F)(F)F
Result: 223

* * *

# reported melting point; entries follow

Request: Item under review: Cc1cc(-c2ccc(C(F)(F)F)cc2)cc(-c2nc(-c3cnc(N)nc3)cs2)n1 [Example 231] . Reported melting point?
Result: > 250 °C

More entries:
Request: // query melting point value for entry Cc1cc(-c2ccc(C(F)(F)F)c(C)c2)cc(-c2cccc(-c3cccc(S(N)(=O)=O)c3)n2)n1 [Example 440]
Result: > 250 °C

Request: Same lookup for Nc1ccc(-c2cc(-c3cc(C(F)(F)F)cc(-c4ccc(C(F)(F)F)cc4)n3)ccn2)cn1 [Example 74] , please.
Result: 194 to 196 °C

* * *

Listed below: melting point values for each entry.

See these solved cases before continuing.
Request: Given the entry FC(F)(F)c1ccc(-c2cc(C(F)(F)F)nc(-n3cnc(-c4cccnc4)c3)n2)cc1 , report its measured melting point.
Result: 200.5 °C

Request: Also Nc1ccc(-c2cccc(-c3cc(C(F)(F)F)cc(-c4ccc(C(F)(F)F)cc4)n3)c2)cn1 , if possible.
Result: 170 to 172 °C

Next:
Request: Look up melting point: NS(=O)(=O)c1ccc(-c2cn(-c3nc(-c4ccc(Cl)c(Cl)c4)cc(C(F)(F)F)n3)cn2)s1
Result: 282 °C (dec.)

* * *

# key: entry, value: melting point

# example entries with known answers
Request: Quick one: melting point of Cc1cc(-c2ccc(Cl)c(C)c2)nc(-c2cccc(-c3ccc(N)nc3)c2)n1 ?
Result: 158 °C (dec.)

Request: Note, next up: NS(=O)(=O)c1ccc(-c2noc(-c3nc(-c4ccc(Cl)c(Cl)c4)cc(C(F)(F)F)n3)n2)cc1
Result: 302.5 °C

Continue with the compound presented below.
Request: Report melting point for Cc1cc(-c2ccc(C(F)(F)F)cc2)cc(-c2cccc(-c3cccc(S(=O)(=O)N4CCC(Oc5ncccn5)CC4)c3)n2)n1 please.
Result: 134 °C (dec.)

* * *

The entries below are paired with their reported melting point.

Example molecules with recorded melting point:
Request: Can you share its melting point? I mean this molecule: Cc1cc(-c2ccc3c(c2)OCO3)cc(-c2cccc(-c3ccc(N)nc3)c2)n1
Result: 203 °C

Request: Then what about the molecule Nc1ncc(-c2cn(-c3nc(-c4ccc(Cl)cc4)cc(C4CC4)n3)cn2)cn1 ?
Result: 238 to 240 °C

Request: Nc1ccc(-c2cc(-c3nc(-c4cccc(C(F)(F)F)c4)cc(C(F)(F)F)n3)ccn2)cn1 ?
Result: 196 °C

Request: Same again, this time with Cc1cc(-c2ccc(C(F)(F)F)cc2)cc(-c2cccc(-c3ccc(S(N)(=O)=O)cc3)n2)n1
Result: 215 to 227 °C

Request: Further, for O=S(=O)(c1cccc(-c2cc(-c3nc(-c4ccc(C(F)(F)F)cc4)cc(C(F)(F)F)n3)ccn2)c1)N1CCOCC1 ?
Result: 202 °C

Request: Entry Nc1ccc(-c2cn(-c3cc(C(F)(F)F)cc(-c4ccc(Cl)cc4)n3)cn2)cn1 please
Result: 196 °C (dec.)

***
Request: GET /values?readout=melting point&item= Clc1ccc(-c2cc(C3CC3)nc(-n3cnc(-c4cccnc4)c3)n2)cc1
Result: 180 to 182 °C

Request: Entry to check: Cc1nc(-c2cn(-c3cc(-c4ccc(C(F)(F)F)cc4)cc(C(F)(F)F)n3)cn2)sc1S(N)(=O)=O
Result: 170 °C (dec.)
